Just for reference, a melting point compilation (Tetko et al.; mined from patent text by program, amines drawn as free bases though some values may be those of a salt) is where these values come from.

Entries and their measured melting point follow.

Molecule: CCOC(=O)[C@H](C)NC(=O)CCc1cc(Cl)ccc1C(=O)CCCNC(C)=O
melting point: 106 °C
//
Molecule: CCC(CC)C(O)C(O)C(CC1CCCCC1)NC(=O)C(Cc1c[nH]cn1)NC(=O)C(CC(=O)C(C)(C)C)Cc1ccccc1 (configuration not stated)
melting point: 160 °C
//
Molecule: O=C(O)CCSC(=S)NCc1ccc(Cl)cc1
melting point: 104 to 105 °C
//
Molecule: COC(=O)CC(Cc1ccccc1)C(=O)N[C@@H](Cc1ccccc1)C(=O)O (some centres not stated)
melting point: 100 to 104 °C
//
Molecule: Cc1cccc2c(-c3ccccc3)c([N+](=O)[O-])oc12
melting point: 122 to 127 °C
//
Molecule: N=C(N)Nc1nc(CSCCNc2ncccc2C(=O)O)cs1
melting point: 141 to 145 °C
//
Molecule: CC1(C)CC(=O)C2=C(C1)NC(c1cccnc1)=NC2c1ccc(F)cc1Cl (configuration not stated)
melting point: 186 to 187 °C
//
Molecule: COc1ccc2nc(NC(=O)COC(=O)C(C)C)sc2c1
melting point: 141 to 142 °C
//
Molecule: Cc1[nH]c(C(=O)NCC(=O)O)c(C)c1-c1nc2ccc(C(=O)c3ccccc3)cc2[nH]1
melting point: 274 to 276 °C
//
Molecule: O=C(Cl)c1ccc(S(=O)(=O)NC(=O)c2ccccc2Cl)cc1
melting point: 198 to 200 °C
//
Molecule: O=C(O)C(Cl)=C(Cl)C(O)=NCCc1ccc([N+](=O)[O-])cc1
melting point: 166 °C
//
Molecule: COc1ccc(S(=O)(=O)Nc2ccccc2C(F)(F)F)cc1
melting point: 92 to 93 °C
//
Molecule: COC(=O)NNC(=O)c1ccc([N+](=O)[O-])o1
melting point: 155 °C
//
Molecule: CCOC(=O)NC(C(=O)OC)=C1CN=C(c2ccccc2F)c2cc(Cl)ccc2N1
melting point: 188 to 191 °C
//
Molecule: COc1ccc2c(c1)C(=O)C(=Cc1cccc([N+](=O)[O-])c1)CC2
melting point: 175 to 176 °C
//
Molecule: O=C(CCSC(=O)c1ccccc1)N[C@@H](Cc1c[nH]cn1)C(=O)O
melting point: 170 to 171 °C
//
Molecule: N#Cc1ccc(-c2nc(N3C(=O)OCC34CC4)sc2F)cc1
melting point: 222 to 224 °C
